Value source: patent US12071404B2

Experimental Target: GPR17 (Homo sapiens)
Assay: Calcium mobilization functional assay (GPR17 Ca2+ assay)
Assay type: cell-based
Design: host or cells: Flp-In T-REx CHO
Assay Context: CHO hGPR17 cells, inhibition of 50 nM MDL29,951, Calcium 5 dye, FLIPR; read-out: Ca2+ assay pIC50 (converted)
Please go through the items and note down their IC50.

Can you look up the measured IC50 of N#Cc1ccc(NS(=O)(=O)c2coc3cc(Cl)ccc23)cc1 for me?
3.16 to 31.6 nM

Now give it for O=S(=O)(Nc1cc(Cl)cc(Cl)n1)c1c[nH]c2cc(Cl)ccc12 too.
> 31.6 nM

Now give it for N#Cc1ccc(NS(=O)(=O)c2c[nH]c3cc(F)ccc23)c(F)c1 too.
3.16 to 31.6 nM

Now give it for O=S(=O)(Nc1ccc(I)cc1F)c1c[nH]c2c1ccc1ccccc12 too.
> 31.6 nM

Now give it for N#Cc1ccc(NS(=O)(=O)c2c[nH]c3cc(-c4ccccc4)ccc23)c(F)c1 too.
3.16 to 31.6 nM

Now give it for Cc1cc2c(S(=O)(=O)Nc3cccc4c3OCO4)c[nH]c2cc1Br too.
> 31.6 nM

Now give it for O=S(=O)(Nc1cc(F)ccc1F)c1c[nH]c2nc(Br)ccc12 too.
3.16 to 31.6 nM

Now give it for O=S(=O)(Nc1ccc(S(F)(F)(F)(F)F)cc1F)c1c[nH]c2nc(Cl)ccc12 too.
3.16 to 31.6 nM

* * *

Experimental Target: GPR17 (Homo sapiens, UniProt Q13304)
Sequence (Q13304 whole entry): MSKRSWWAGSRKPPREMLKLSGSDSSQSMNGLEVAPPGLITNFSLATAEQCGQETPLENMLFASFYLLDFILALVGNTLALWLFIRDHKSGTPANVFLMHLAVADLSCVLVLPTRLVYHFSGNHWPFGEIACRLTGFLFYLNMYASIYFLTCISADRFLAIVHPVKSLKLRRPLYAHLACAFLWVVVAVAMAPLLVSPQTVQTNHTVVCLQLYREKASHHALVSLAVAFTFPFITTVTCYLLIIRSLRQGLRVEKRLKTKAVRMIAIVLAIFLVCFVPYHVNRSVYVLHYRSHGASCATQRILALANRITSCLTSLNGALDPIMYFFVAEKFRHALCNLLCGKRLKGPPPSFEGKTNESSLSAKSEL
Assay: cAMP accumulation functional assay (HTRF, Schild analysis)
Assay type: cell-based
Design: host or cells: Flp-In T-REx CHO
Assay Context: CHO hGPR17 cells, Schild analysis vs MDL29,951, 5 μM forskolin, read-out: cAMP assay pA2 (converted)
Readout Kind: Kb

Can you look up the measured Kb of O=S(=O)(Nc1ccc(Cl)cc1F)c1c[nH]c2cc(Cl)ccc12 for me?
< 3.16 nM

Now give it for O=S(=O)(Nc1cc(F)c(Cl)cc1F)c1coc2cc(Cl)ccc12 too.
3.16 to 31.6 nM

Now give it for COc1cc(Br)cnc1NS(=O)(=O)c1c[nH]c2cc(Cl)ccc12 too.
3.16 to 31.6 nM

Now give it for O=[N+]([O-])c1ccc(NS(=O)(=O)c2c[nH]c3cc(Cl)ccc23)cc1 too.
> 31.6 nM

Now give it for O=S(=O)(Nc1cc2c(cc1F)OC(F)(F)O2)c1c[nH]c2nc(Cl)ccc12 too.
3.16 to 31.6 nM

Now give it for N#Cc1ccc(NS(=O)(=O)c2c[nH]c3cc(-c4ccccc4)ccc23)c(F)c1 too.
> 31.6 nM

Now give it for O=S(=O)(Nc1cccc2n[se]nc12)c1c[nH]c2cc(Cl)ccc12 too.
< 3.16 nM

Now give it for O=S(=O)(Nc1cc(F)ccc1F)c1c[nH]c2nc(Cl)ccc12 too.
> 31.6 nM

Now give it for O=S(=O)(Nc1cc(F)c(Cl)cc1F)c1c[nH]c2cc(-c3ccsc3)ccc12 too.
> 31.6 nM

Now give it for O=C1NCc2cc(F)c(NS(=O)(=O)c3c[nH]c4cc(Cl)ccc34)cc21 too.
> 31.6 nM

Now give it for O=S(=O)(Nc1cc(F)c(Cl)cc1F)c1c[nH]c2c(F)c(Cl)ccc12 too.
< 3.16 nM

Now give it for O=S(=O)(Nc1cc(F)c(C(F)(F)F)cc1F)c1c[nH]c2nc(Cl)ccc12 too.
< 3.16 nM

Now give it for O=S(=O)(Nc1cc(OC(F)F)c(Cl)cc1F)c1c[nH]c2cc(Cl)ccc12 too.
< 3.16 nM

Now give it for O=S(=O)(Nc1cccc2nsnc12)c1c[nH]c2c1ccc1cccnc12 too.
< 3.16 nM

Now give it for O=S(=O)(Nc1cc(F)c(Cl)cc1F)c1c[nH]c2c(OCC(F)F)c(Cl)ccc12 too.
< 3.16 nM

Now give it for COc1ccc2c(S(=O)(=O)Nc3ccc(C(F)(F)F)cc3F)c[nH]c2c1 too.
3.16 to 31.6 nM

Now give it for O=S(=O)(Nc1nc(F)c(Cl)cc1F)c1c[nH]c2c3c(ccc12)CCC3 too.
3.16 to 31.6 nM

Now give it for O=S(=O)(Nc1cccc2c1OC(F)(F)O2)c1c[nH]c2c1ccc1cccnc12 too.
3.16 to 31.6 nM

Now give it for O=S(=O)(Nc1cc(F)c(F)cc1F)c1c[nH]c2cc(Cl)ccc12 too.
< 3.16 nM

Now give it for N#Cc1ccc(NS(=O)(=O)c2c[nH]c3cc(OCC4CC4)ccc23)c(F)c1 too.
3.16 to 31.6 nM

Now give it for COc1nc(NS(=O)(=O)c2c[nH]c3cc(Cl)c(F)cc23)c(F)cc1Cl too.
3.16 to 31.6 nM

Now give it for N#Cc1ccc(NS(=O)(=O)c2c[nH]c3cc(OCc4ccccc4)ccc23)c(F)c1 too.
3.16 to 31.6 nM

Now give it for O=S(=O)(Nc1ccc(F)cc1F)c1c[nH]c2cc(Cl)ccc12 too.
> 31.6 nM

Now give it for COc1nc(NS(=O)(=O)c2c[nH]c3c(Cl)c(F)ccc23)c(F)cc1Cl too.
3.16 to 31.6 nM

Now give it for N#Cc1ccc(NS(=O)(=O)c2c[nH]c3cc(C4CC4)ccc23)cc1 too.
3.16 to 31.6 nM

Now give it for O=S(=O)(Nc1cc(F)c(Cl)cc1F)c1c[nH]c2nc(Cl)ccc12 too.
< 3.16 nM

Now give it for O=S(=O)(Nc1ccc(I)cc1F)c1c[nH]c2nc(Cl)ccc12 too.
3.16 to 31.6 nM

Now give it for N#Cc1ccc(NS(=O)(=O)c2coc3cc(Cl)ccc23)cc1 too.
> 31.6 nM

Now give it for O=S(=O)(Nc1ncc(Cl)cc1F)c1c[nH]c2cc(Cl)ccc12 too.
3.16 to 31.6 nM

Now give it for COc1cc(C(F)(F)F)cnc1NS(=O)(=O)c1c[nH]c2cc(Cl)ccc12 too.
3.16 to 31.6 nM

Now give it for O=S(=O)(Nc1cc(F)c(Cl)cc1F)c1csc2cc(Cl)ccc12 too.
3.16 to 31.6 nM

Now give it for C#Cc1ccc(NS(=O)(=O)c2c[nH]c3nc(Br)ccc23)cc1 too.
3.16 to 31.6 nM

Now give it for COc1nc(NS(=O)(=O)c2c[nH]c3cc(Cl)ccc23)c(F)cc1F too.
3.16 to 31.6 nM

Now give it for N#Cc1ccc(NS(=O)(=O)c2c[nH]c3cc(-c4cccnc4)ccc23)c(F)c1 too.
3.16 to 31.6 nM
